What follows is a record of log10 of IC50 for Tankyrase 1/2 (Homo sapiens, UniProt Q9H2K2+O95271).
Readout Name: log10 of IC50 (log10 of the value in nM)

{"columns": ["Compound", "Assay System", "Observed Measurement"],
 "data": [
  ["COCCN1C(=O)C2(CCN(c3nc4c(c(=O)[nH]3)CCCN4C)CC2)c2c(F)cc(F)cc21", "Tankyrase 1/2 (Homo sapiens, UniProt Q9H2K2+O95271)", 0.48],
  ["CN1CCCc2c1nc(N1CCC3(CC1)C(=O)N(C)c1cc(OCCN4CCCCC4)cc(F)c13)[nH]c2=O", "Tankyrase 1/2 (Homo sapiens, UniProt Q9H2K2+O95271)", 0.70],
  ["C[C@@H]1CN(c2cc(F)c3c(c2)N(C)C(=O)C32CCN(c3nc4c(c(=O)[nH]3)CCCN4C)CC2)C[C@H](C)O1", "Tankyrase 1/2 (Homo sapiens, UniProt Q9H2K2+O95271)", 0.49],
  ["CN1CCCc2c1nc(N1CCC3(CC1)C(=O)N(C)c1cc(OCCN4CCOCC4)cc(F)c13)[nH]c2=O", "Tankyrase 1/2 (Homo sapiens, UniProt Q9H2K2+O95271)", 0.45],
  ["CN1CCCc2c1nc(N1CCC3(CC1)C(=O)N(C)c1cc(OCCN4CCCC4)cc(F)c13)[nH]c2=O", "Tankyrase 1/2 (Homo sapiens, UniProt Q9H2K2+O95271)", 0.82],
  ["CN1CCCc2c1nc(N1CCC3(CC1)C(=O)N(CC1COC1)c1cc(F)cc(F)c13)[nH]c2=O", "Tankyrase 1/2 (Homo sapiens, UniProt Q9H2K2+O95271)", 0.86],
  ["CN1CCCc2c1nc(N1CCC3(CC1)C(=O)N(CC(=O)O)c1cc(F)cc(F)c13)[nH]c2=O", "Tankyrase 1/2 (Homo sapiens, UniProt Q9H2K2+O95271)", 3.07],
  ["CN1CCCc2c1nc(N1CCC3(CC1)C(=O)N(C)c1cc(N4CCOCC4)cc(F)c13)[nH]c2=O", "Tankyrase 1/2 (Homo sapiens, UniProt Q9H2K2+O95271)", 0.30],
  ["C[C@@H]1CN(c2cc(F)c3c(c2)N(C)C(=O)C32CCN(c3nc4c(c(=O)[nH]3)CCCN4C)CC2)C[C@H](C)N1", "Tankyrase 1/2 (Homo sapiens, UniProt Q9H2K2+O95271)", 0.63],
  ["Cn1ccc2c(=O)[nH]c(N3CCC4(CC3)CN(CCO)c3cc(F)cc(F)c34)nc21", "Tankyrase 1/2 (Homo sapiens, UniProt Q9H2K2+O95271)", 0.85],
  ["Cc1cccc2c(=O)[nH]c(N3CCC4(CC3)C(=O)N(CCO)c3cc(F)cc(F)c34)nc12", "Tankyrase 1/2 (Homo sapiens, UniProt Q9H2K2+O95271)", 0.68],
  ["CN1CCc2c1nc(N1CCC3(CC1)C(=O)N(CCO)c1cc(F)cc(F)c13)[nH]c2=O", "Tankyrase 1/2 (Homo sapiens, UniProt Q9H2K2+O95271)", 1.52],
  ["CN1CCCc2c1nc(N1CCC3(CC1)C(=O)N(C)c1cc(F)cc(F)c13)[nH]c2=O", "Tankyrase 1/2 (Homo sapiens, UniProt Q9H2K2+O95271)", 1.16],
  ["CN(C)CCOc1cc(F)c2c(c1)N(C)C(=O)C21CCN(c2nc3c(c(=O)[nH]2)CCCN3C)CC1", "Tankyrase 1/2 (Homo sapiens, UniProt Q9H2K2+O95271)", 0.79],
  ["CN1CCCc2c1nc(N1CCC3(CC1)C(=O)N(C)c1cc(OCC(=O)O)cc(F)c13)[nH]c2=O", "Tankyrase 1/2 (Homo sapiens, UniProt Q9H2K2+O95271)", 3.27],
  ["Cn1ccc2c(=O)[nH]c(N3CCC4(CC3)C(=O)N(CCO)c3cc(F)cc(F)c34)nc21", "Tankyrase 1/2 (Homo sapiens, UniProt Q9H2K2+O95271)", 0.80],
  ["CN1CCC(Oc2cc(F)c3c(c2)N(C)C(=O)C32CCN(c3nc4c(c(=O)[nH]3)CCCN4C)CC2)CC1", "Tankyrase 1/2 (Homo sapiens, UniProt Q9H2K2+O95271)", 0.43],
  ["CN1CCCc2c1nc(N1CCC3(CC1)C(=O)N(CC(O)CO)c1cc(F)cc(F)c13)[nH]c2=O (stereo not given)", "Tankyrase 1/2 (Homo sapiens, UniProt Q9H2K2+O95271)", 1.16],
  ["CN1CCCc2c1nc(N1CCC3(CC1)C(=O)N(C)c1cc(N4CCCCC4)cc(F)c13)[nH]c2=O", "Tankyrase 1/2 (Homo sapiens, UniProt Q9H2K2+O95271)", 0.81],
  ["CN1CCCc2c1nc(N1CCC3(CC1)C(=O)N(C)c1cc(N4CCNCC4)cc(F)c13)[nH]c2=O", "Tankyrase 1/2 (Homo sapiens, UniProt Q9H2K2+O95271)", 1.46],
  ["COc1cc(F)c2c(c1)N(C)C(=O)C21CCN(c2nc3c(c(=O)[nH]2)CCCN3C)CC1", "Tankyrase 1/2 (Homo sapiens, UniProt Q9H2K2+O95271)", 0.65],
  ["CN1CCCc2c1nc(N1CCC3(CC1)C(=O)N(C)c1cc(OCCO)cc(F)c13)[nH]c2=O", "Tankyrase 1/2 (Homo sapiens, UniProt Q9H2K2+O95271)", 0.36],
  ["O=c1[nH]c(N2CCC3(CC2)CN(CCO)c2cc(F)cc(F)c23)nc2c1CCCC2", "Tankyrase 1/2 (Homo sapiens, UniProt Q9H2K2+O95271)", 1.89],
  ["CN1CCN(c2cc(F)c3c(c2)N(C)C(=O)C32CCN(c3nc4c(c(=O)[nH]3)CCCN4C)CC2)CC1", "Tankyrase 1/2 (Homo sapiens, UniProt Q9H2K2+O95271)", 0.92],
  ["CN1CCCc2c1nc(N1CCC3(CC1)C(=O)N(CCO)c1cc(F)cc(F)c13)[nH]c2=O", "Tankyrase 1/2 (Homo sapiens, UniProt Q9H2K2+O95271)", 0.59],
  ["CN1CCCc2c1nc(N1CCC3(CC1)C(=O)N(CS(C)(=O)=O)c1cc(F)cc(F)c13)[nH]c2=O", "Tankyrase 1/2 (Homo sapiens, UniProt Q9H2K2+O95271)", 0.76],
  ["CN(C)c1cc(F)c2c(c1)N(C)C(=O)C21CCN(c2nc3c(c(=O)[nH]2)CCCN3C)CC1", "Tankyrase 1/2 (Homo sapiens, UniProt Q9H2K2+O95271)", 1.32],
  ["CN1CCc2c1nc(N1CCC3(CC1)CN(CCO)c1cc(F)cc(F)c13)[nH]c2=O", "Tankyrase 1/2 (Homo sapiens, UniProt Q9H2K2+O95271)", 2.15],
  ["O=C1N(CCO)c2cc(F)cc(F)c2C12CCN(c1nc3c(c(=O)[nH]1)CCCC3)CC2", "Tankyrase 1/2 (Homo sapiens, UniProt Q9H2K2+O95271)", 1.85],
  ["COCCOc1cc(F)c2c(c1)N(C)C(=O)C21CCN(c2nc3c(c(=O)[nH]2)CCCN3C)CC1", "Tankyrase 1/2 (Homo sapiens, UniProt Q9H2K2+O95271)", 0.11],
  ["Cc1cccc2c(=O)[nH]c(N3CCC4(CC3)CN(CCO)c3cc(F)cc(F)c34)nc12", "Tankyrase 1/2 (Homo sapiens, UniProt Q9H2K2+O95271)", 1.14],
  ["CN1CCCc2c1nc(N1CCC3(CC1)C(=O)N(CC(F)(F)F)c1cc(F)cc(F)c13)[nH]c2=O", "Tankyrase 1/2 (Homo sapiens, UniProt Q9H2K2+O95271)", 0.38],
  ["CN1CCCc2c1nc(N1CCC3(CC1)C(=O)N(CC#N)c1cc(F)cc(F)c13)[nH]c2=O", "Tankyrase 1/2 (Homo sapiens, UniProt Q9H2K2+O95271)", 0.20],
  ["CN1CCCc2c1nc(N1CCC3(CC1)CN(CCO)c1cc(F)cc(F)c13)[nH]c2=O", "Tankyrase 1/2 (Homo sapiens, UniProt Q9H2K2+O95271)", 0.85],
  ["CN1CCN(CCOc2cc(F)c3c(c2)N(C)C(=O)C32CCN(c3nc4c(c(=O)[nH]3)CCCN4C)CC2)CC1", "Tankyrase 1/2 (Homo sapiens, UniProt Q9H2K2+O95271)", 0.80]
]}

====

- Assay Text: Plasma concentration in human COLO320DM cells xenografted Prkdc-NOD-SCID CB17 mouse at 20 mg/kg, po administered twice daily for 5 days followed by 2 days interval for 2 cycles measured 4 hrs post-last dose
- Assay type: ADME, organism-based

{"columns": ["Compound", "concentration at 4 h (µM)"],
 "data": [
  ["C[C@@H]1CN(c2cc(F)c3c(c2)N(C)C(=O)C32CCN(c3nc4c(c(=O)[nH]3)CCCN4C)CC2)C[C@H](C)O1", 23.3]
]}
